tested on: GST-tagged Cn; experiment: PEPperPRINT peptide microarray binding assay with GST-tagged Cn; conditions: GST-tagged Cn, max over the spots named in Location on chip
Attribute measured: Chip Fluorescence (max)
When you answer, write just the number.

{"Input sequence": "HVSSSPRIAITPTQHR [SeqRBMlowT_8885]", "Chip Fluorescence (max)": 1.646}
{"Input sequence": "TFWTNPQYRVHVCDPD [SeqRBMlowT_293]", "Chip Fluorescence (max)": 1.378}
{"Input sequence": "TFWSNPQFKIKLEDPD [SeqRBMlowT_7428]", "Chip Fluorescence (max)": 1.373}
{"Input sequence": "SSEYQESLCIENFSAN [SeqRBM_3304]", "Chip Fluorescence (max)": 1.766}
{"Input sequence": "SKMAIAIYQMASCLLH [Seqshuffled_9384]", "Chip Fluorescence (max)": 1.655}

Any idea what its Chip Fluorescence (max) is? The sequence is TFWTNPQYRVKLEDPD [SeqRBMlowT_28]
1.52

Any idea what its Chip Fluorescence (max) is? The sequence is LGRMSPQSTTQALPST [Seqshuffled_9332]
1.718
